# credit: ChEMBL document CHEMBL1811781

biological target: RAC-alpha serine/threonine-protein kinase (Homo sapiens, UniProt P31749); assay: Inhibition of recombinant AKT1 assessed as 33Pi incorporation after 60 mins by scintillation counting
Sequence (P31749 whole entry): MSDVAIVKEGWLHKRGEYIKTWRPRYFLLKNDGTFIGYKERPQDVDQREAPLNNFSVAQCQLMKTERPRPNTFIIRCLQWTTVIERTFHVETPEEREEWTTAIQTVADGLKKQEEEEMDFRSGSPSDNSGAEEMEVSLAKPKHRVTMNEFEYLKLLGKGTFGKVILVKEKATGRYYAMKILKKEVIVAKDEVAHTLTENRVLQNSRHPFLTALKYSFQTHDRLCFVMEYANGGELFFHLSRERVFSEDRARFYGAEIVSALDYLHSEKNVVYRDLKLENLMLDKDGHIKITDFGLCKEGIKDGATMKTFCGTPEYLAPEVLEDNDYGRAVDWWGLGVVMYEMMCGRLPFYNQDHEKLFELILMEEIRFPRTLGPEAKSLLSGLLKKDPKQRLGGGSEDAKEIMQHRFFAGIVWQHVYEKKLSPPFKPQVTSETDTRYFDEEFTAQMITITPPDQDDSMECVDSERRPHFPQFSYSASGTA
PARAMETER: IC50

>  <ENTRY_SMILES>
Cc1cc(O)cc2oc3cc(O)cc(O)c3c(=O)c12

>  <MEASUREMENT_TARGET>
RAC-alpha serine/threonine-protein kinase (Homo sapiens, UniProt P31749)

>  <ASSAY_RESULT>
> 100 µM

$$$$

Note to self: IC50 of `Cc1c(O)c(O)cc2oc3cc(O)cc(O)c3c(=O)c12` with RAC-alpha serine/threonine-protein kinase (Homo sapiens, UniProt P31749) was > 100 µM

---

target: Serine/threonine-protein kinase pim-1 (Homo sapiens); test: Inhibition of recombinant PIM1 assessed as 33Pi incorporation after 60 mins by scintillation counting
Sequence (P11309 whole entry): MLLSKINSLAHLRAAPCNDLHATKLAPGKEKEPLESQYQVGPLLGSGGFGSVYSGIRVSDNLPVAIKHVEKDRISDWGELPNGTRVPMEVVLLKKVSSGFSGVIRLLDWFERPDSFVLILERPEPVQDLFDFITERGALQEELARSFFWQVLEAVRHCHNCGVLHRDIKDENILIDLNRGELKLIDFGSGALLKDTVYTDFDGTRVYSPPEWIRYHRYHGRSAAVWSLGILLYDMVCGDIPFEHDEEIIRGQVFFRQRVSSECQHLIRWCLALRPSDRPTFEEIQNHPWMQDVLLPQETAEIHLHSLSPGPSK
Quick list: IC50 per entry.
Please respond with the number in µM and leave the unit unwritten.

>  <ENTRY_SMILES>
Cc1c(O)c(O)cc2oc3cc(O)cc(O)c3c(=O)c12

>  <IC50 / µM>
0.3

$$$$

Now for the molecule whose IC50 we want.
Query `Cc1cc(O)cc2oc3cc(O)cc(O)c3c(=O)c12` yields IC50 of 0.3

---

target: Serine/threonine-protein kinase Nek6 (Homo sapiens, UniProt Q9HC98); test: Inhibition of recombinant NEK6 assessed as 33Pi incorporation after 60 mins by scintillation counting
Sequence (Q9HC98 whole entry): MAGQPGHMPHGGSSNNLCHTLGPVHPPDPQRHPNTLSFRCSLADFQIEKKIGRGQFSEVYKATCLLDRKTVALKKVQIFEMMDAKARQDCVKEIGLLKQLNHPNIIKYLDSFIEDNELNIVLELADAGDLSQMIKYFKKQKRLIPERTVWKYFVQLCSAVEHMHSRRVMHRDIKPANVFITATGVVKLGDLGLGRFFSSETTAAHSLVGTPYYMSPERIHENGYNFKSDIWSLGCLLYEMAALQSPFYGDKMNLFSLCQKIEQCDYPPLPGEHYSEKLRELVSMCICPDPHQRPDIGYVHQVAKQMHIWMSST
PARAMETER: IC50 (µM)
Please respond with the number in µM and leave the unit unwritten.

Query `Cc1c(O)c(O)cc2oc3cc(O)cc(O)c3c(=O)c12` yields IC50 of 67.8

---

Quick list: pIC50 per entry.
biological target: Serine/threonine-protein kinase N1 (Homo sapiens, UniProt Q16512); experiment: Inhibition of recombinant PRK1 assessed as 33Pi incorporation after 60 mins by scintillation counting
Sequence (Q16512 whole entry): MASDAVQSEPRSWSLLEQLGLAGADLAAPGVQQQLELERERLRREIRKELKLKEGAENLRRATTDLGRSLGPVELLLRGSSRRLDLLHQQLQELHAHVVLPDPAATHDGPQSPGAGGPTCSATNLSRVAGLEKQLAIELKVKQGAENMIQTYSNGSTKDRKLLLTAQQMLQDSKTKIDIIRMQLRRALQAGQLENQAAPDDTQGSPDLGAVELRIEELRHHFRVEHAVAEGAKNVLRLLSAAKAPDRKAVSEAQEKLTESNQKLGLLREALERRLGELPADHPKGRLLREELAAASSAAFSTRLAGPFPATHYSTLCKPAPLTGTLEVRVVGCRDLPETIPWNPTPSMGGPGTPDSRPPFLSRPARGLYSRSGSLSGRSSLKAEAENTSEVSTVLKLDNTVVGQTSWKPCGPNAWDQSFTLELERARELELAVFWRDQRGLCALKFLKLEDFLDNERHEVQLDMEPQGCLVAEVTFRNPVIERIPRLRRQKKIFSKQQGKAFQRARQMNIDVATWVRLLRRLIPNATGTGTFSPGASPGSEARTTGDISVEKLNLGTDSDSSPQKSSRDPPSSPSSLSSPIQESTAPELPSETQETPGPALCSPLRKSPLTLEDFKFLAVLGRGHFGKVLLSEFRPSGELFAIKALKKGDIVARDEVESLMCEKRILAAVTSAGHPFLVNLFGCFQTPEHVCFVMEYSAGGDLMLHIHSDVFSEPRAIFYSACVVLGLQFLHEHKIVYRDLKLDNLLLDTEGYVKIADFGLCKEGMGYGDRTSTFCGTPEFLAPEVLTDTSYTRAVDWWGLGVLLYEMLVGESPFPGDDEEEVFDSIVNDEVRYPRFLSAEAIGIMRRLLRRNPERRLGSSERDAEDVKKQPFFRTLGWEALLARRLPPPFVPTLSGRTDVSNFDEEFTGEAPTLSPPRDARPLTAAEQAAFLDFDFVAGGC
# reply with the number alone; pIC50 is -log10 of concentration in mol/L

>  <COMPOUND>
Cc1c(O)c(O)cc2oc3cc(O)cc(O)c3c(=O)c12 [ANOMALIN A]

>  <MEASUREMENT_TARGET>
Serine/threonine-protein kinase N1 (Homo sapiens, UniProt Q16512)

>  <PARAMETER>
pIC50

>  <ASSAY_RESULT>
4.34

$$$$

Query Cc1cc(O)cc2oc3cc(O)cc(O)c3c(=O)c12 [NORLICHEXANTHONE] yields pIC50 of 4.26

---

target: Tyrosine-protein kinase receptor UFO (Homo sapiens, UniProt P30530); assay: Inhibition of recombinant AXL assessed as 33Pi incorporation after 60 mins by scintillation counting
Sequence (P30530 whole entry): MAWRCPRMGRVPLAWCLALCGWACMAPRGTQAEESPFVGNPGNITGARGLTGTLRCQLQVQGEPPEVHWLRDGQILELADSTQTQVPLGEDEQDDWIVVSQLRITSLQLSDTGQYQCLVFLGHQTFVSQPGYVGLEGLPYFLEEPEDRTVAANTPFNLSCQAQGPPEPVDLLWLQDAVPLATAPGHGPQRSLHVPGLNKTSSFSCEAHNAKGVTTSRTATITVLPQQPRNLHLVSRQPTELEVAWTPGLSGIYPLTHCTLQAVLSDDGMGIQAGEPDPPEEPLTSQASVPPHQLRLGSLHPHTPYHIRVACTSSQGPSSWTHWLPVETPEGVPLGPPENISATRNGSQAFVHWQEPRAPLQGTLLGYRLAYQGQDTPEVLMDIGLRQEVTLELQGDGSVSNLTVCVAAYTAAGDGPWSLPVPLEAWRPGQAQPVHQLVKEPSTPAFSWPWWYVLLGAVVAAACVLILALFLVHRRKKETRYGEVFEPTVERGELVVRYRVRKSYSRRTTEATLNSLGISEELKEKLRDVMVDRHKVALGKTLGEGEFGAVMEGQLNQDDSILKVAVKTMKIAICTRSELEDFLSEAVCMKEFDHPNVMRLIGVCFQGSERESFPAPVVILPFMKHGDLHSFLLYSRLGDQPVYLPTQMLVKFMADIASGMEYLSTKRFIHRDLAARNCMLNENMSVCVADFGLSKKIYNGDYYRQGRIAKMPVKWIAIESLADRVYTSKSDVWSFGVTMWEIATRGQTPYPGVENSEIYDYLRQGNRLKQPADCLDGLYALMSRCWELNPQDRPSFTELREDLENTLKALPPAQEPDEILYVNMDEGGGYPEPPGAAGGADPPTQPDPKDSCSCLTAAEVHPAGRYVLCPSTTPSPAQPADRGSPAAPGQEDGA
PARAMETER: IC50 (µM)
Please respond with the number in µM and leave the unit unwritten.

Query `Cc1c(O)c(O)cc2oc3cc(O)cc(O)c3c(=O)c12` yields IC50 of 6.6

---

biological target: Hepatocyte growth factor receptor (Homo sapiens, UniProt P08581)
Sequence (P08581 whole entry): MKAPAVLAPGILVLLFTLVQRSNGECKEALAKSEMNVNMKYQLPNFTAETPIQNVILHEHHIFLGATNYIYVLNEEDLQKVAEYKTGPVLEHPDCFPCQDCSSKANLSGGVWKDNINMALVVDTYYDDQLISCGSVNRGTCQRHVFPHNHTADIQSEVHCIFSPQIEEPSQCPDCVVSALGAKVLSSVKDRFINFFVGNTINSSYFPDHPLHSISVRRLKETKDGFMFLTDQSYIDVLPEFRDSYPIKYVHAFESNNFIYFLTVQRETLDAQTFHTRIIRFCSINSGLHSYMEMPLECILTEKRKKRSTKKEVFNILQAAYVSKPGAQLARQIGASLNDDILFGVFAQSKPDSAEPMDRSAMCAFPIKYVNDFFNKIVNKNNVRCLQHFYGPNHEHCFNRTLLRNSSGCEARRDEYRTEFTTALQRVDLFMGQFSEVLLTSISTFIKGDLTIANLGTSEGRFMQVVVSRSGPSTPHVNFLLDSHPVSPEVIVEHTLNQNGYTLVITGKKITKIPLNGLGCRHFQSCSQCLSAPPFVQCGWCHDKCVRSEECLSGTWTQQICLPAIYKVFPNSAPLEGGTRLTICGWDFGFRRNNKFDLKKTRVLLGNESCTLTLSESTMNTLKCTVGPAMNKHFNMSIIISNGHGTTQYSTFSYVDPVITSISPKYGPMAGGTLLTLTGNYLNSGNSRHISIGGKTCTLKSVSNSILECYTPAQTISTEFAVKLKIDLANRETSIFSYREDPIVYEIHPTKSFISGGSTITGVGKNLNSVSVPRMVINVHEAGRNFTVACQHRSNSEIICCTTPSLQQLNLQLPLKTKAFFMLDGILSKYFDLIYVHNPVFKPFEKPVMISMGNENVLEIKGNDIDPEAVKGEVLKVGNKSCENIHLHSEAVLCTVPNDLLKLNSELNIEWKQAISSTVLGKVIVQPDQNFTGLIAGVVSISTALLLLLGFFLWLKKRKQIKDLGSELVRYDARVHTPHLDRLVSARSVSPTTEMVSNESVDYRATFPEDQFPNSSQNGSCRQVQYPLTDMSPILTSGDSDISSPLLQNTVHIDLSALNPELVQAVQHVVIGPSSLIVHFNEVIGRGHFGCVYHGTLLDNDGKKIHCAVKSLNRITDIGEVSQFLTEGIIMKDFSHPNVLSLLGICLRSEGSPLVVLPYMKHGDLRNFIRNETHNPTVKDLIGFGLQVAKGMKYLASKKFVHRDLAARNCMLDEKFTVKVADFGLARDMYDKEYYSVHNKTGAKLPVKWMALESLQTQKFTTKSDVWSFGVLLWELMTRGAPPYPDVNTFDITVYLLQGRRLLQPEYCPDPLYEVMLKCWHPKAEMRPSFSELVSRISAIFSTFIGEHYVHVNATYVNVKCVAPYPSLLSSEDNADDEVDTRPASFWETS
PARAMETER: pIC50
# reply with the number alone; pIC50 is -log10 of concentration in mol/L

Note to self: pIC50 of Cc1c(O)c(O)cc2oc3cc(O)cc(O)c3c(=O)c12 [ANOMALIN A] with Hepatocyte growth factor receptor (Homo sapiens, UniProt P08581) was 5.36

---

biological target: NUAK family SNF1-like kinase 1 (Homo sapiens, UniProt O60285); test: Inhibition of recombinant ARK5 assessed as 33Pi incorporation after 60 mins by scintillation counting
Sequence (O60285 whole entry): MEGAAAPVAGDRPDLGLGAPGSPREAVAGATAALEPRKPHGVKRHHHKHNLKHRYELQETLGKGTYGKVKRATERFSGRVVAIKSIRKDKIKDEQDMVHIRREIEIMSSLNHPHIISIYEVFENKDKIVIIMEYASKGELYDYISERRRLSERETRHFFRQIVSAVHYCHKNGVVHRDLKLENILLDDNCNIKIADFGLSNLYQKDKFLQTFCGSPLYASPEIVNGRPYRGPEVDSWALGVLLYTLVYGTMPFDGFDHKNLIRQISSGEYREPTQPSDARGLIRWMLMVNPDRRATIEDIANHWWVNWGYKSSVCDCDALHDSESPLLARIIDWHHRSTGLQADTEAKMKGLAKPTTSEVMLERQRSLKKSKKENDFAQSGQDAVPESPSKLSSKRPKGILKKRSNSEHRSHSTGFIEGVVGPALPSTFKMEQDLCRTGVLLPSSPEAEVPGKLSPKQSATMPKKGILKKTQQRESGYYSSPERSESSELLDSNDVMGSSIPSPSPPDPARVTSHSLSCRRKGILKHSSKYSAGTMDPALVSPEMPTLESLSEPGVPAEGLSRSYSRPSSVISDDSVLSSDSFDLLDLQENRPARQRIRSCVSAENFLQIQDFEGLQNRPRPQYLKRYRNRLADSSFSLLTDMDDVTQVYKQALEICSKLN
PARAMETER: pIC50
# reply with the number alone; pIC50 is -log10 of concentration in mol/L

>  <MOLECULE>
Cc1cc(O)cc2oc3cc(O)cc(O)c3c(=O)c12 [NORLICHEXANTHONE]

>  <pIC50>
4.48

$$$$

Now for the molecule whose pIC50 we want.
Query Cc1c(O)c(O)cc2oc3cc(O)cc(O)c3c(=O)c12 [ANOMALIN A] yields pIC50 of 4.81
